Origin of measurements: patent US10858352B2

# system_under_test: human muscarinic M4 receptor (Homo sapiens)
# Construct: expressed in transfected cells
# assay_notes: Alphascreen Surefire phospho-ERK1/2 functional assay, M4
# Assay type: cell-based
# experimental_setup: CHO cells stably expressing human M4; agonist 5 min, 37° C.; read-out: pEC50 M4 (converted)
measure: EC50 (nM)
Your answer should be a plain number; it is taken to be in nM.

Cc1noc(N2CCCC(N3CCC4(CC3)C(=O)Nc3ccccc34)CC2)n1 (single isomer, unassigned) [10-6 Isomer 1] yielded EC50 of 77.6

Cc1noc(N2C3CCC2CC(N2CCC(n4cccn4)CC2)C3)n1 (single isomer, unassigned) [6-1 Isomer 1] yielded EC50 of 295

Cc1noc(N2CCCC(N3CCC(N4C[C@H](F)C[C@@H]4CO)CC3)CC2)n1 (single isomer, unassigned) [10-7 Isomer 2] yielded EC50 of 398

Cc1noc(N2C3CCC2CC(N2CCC4(CC2)CNC(=O)O4)C3)n1 (single isomer, unassigned) [6-4 Isomer 2] yielded EC50 of 525

Cc1noc(N2CC3(CCC(N4CCC(n5cccn5)CC4)C3)C2)n1 (single isomer, unassigned) [3-1 Isomer 2] yielded EC50 of 1230

Cc1noc(N2C3CCC2CC(N2CCC(C(=O)NC4(C(F)(F)F)CCC4)CC2)C3)n1 (single isomer, unassigned) [12-7 Isomer 2] yielded EC50 of 2000

----------
# system_under_test: human muscarinic M4 receptor (Homo sapiens, UniProt P08173)
# Construct: expressed in transfected cells
# Sequence (P08173 whole entry): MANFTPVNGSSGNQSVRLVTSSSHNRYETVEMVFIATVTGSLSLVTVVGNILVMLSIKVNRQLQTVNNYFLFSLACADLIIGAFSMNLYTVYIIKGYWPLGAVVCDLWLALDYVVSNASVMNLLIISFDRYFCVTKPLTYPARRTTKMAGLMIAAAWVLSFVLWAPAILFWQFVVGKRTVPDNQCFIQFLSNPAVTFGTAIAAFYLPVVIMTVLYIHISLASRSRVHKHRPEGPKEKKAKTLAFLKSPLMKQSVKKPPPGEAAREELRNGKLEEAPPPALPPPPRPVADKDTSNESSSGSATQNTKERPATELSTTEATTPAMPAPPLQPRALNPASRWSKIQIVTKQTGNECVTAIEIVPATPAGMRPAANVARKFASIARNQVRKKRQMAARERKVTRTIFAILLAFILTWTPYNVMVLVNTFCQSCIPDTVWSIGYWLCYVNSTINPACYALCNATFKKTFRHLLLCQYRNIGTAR
# assay_notes: Alphascreen Surefire phospho-ERK1/2 functional assay, M4
# Type: cell-based
# experimental_setup: CHO cells stably expressing human M4; Emax relative to ACh
measure: % Emax cf. ACh (M4)

[
  {
    "compound": "CNC(=O)N1CCC[C@H]1C1CCN(C2CCCN(c3nc(C)no3)CC2)CC1 (single isomer, unassigned) [10-12 Isomer 2]",
    "system_under_test": "human muscarinic M4 receptor (Homo sapiens, UniProt P08173)",
    "measure": "% Emax cf. ACh (M4)",
    "result": "(119) %"
  },
  {
    "compound": "CCN(CC)C(=O)[C@H]1[C@@H]2CN(C3CC4CCC(C3)N4c3nc(C)no3)C[C@@H]21 (single isomer, unassigned; isomer 2) [12-25 Isomer 2]",
    "system_under_test": "human muscarinic M4 receptor (Homo sapiens, UniProt P08173)",
    "measure": "% Emax cf. ACh (M4)",
    "result": "(119) %"
  },
  {
    "compound": "Cc1noc(N2CC3CCC2CC3N2CCC3(CC2)CNC(=O)C3)n1 (single isomer, unassigned) [12-1 Isomer 1]",
    "system_under_test": "human muscarinic M4 receptor (Homo sapiens, UniProt P08173)",
    "measure": "% Emax cf. ACh (M4)",
    "result": "(5) %"
  }
]

----------
Assignment: determine reported Emax for the given compounds.
# system_under_test: human muscarinic M2 receptor (Homo sapiens)
# Sequence (P08172 whole entry): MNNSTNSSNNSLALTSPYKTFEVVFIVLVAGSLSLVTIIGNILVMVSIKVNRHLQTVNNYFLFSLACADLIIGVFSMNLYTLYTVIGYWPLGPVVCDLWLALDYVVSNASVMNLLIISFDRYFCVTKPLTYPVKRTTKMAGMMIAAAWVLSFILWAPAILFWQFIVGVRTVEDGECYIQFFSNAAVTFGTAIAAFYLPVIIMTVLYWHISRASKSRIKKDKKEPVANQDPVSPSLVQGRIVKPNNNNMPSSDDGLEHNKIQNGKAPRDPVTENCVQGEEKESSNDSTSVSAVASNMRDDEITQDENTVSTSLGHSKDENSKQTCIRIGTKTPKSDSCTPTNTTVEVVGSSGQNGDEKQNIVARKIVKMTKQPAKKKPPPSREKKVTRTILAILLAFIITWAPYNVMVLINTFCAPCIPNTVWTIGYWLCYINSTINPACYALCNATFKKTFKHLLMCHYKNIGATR
# assay_notes: Alphascreen Surefire phospho-ERK1/2 functional assay, M2
# Format: cell-based
# experimental_setup: CHO, read-out: % Emax cf. ACh (M2)

Cc1noc(N2C3CCC2CC(N2CCC4(CC2)CNC(=O)O4)C3)n1 (single isomer, unassigned) [6-4 Isomer 2] yielded Emax of 5%

O=C1CC2(CCN(C3CC4CCC(C3)N4c3nc(C(F)(F)F)no3)CC2)CN1 (single isomer, unassigned) [12-3 Isomer 1] yielded Emax of 19%

Cc1noc(N2C3CCC2CC(N2CCC(n4cccn4)CC2)C3)n1 (single isomer, unassigned) [6-1 Isomer 1] yielded Emax of 2%

Cc1noc(N2C3CCC2CC(N2CCC(C(=O)NC4(C)CCC4)CC2)C3)n1 (single isomer, unassigned) [6-5 Isomer 2] yielded Emax of 31%

Cc1noc(N2CCC3(CC(N4CCC(C#N)(c5ccccc5)CC4)C3)C2)n1 (single isomer, unassigned) [2-2 Isomer 2] yielded Emax of 2%

CCc1noc(N2C3CCC2CC(N2CCC4(CC2)CNC(=O)C4)C3)n1 (single isomer, unassigned) [6-3 Isomer 2] yielded Emax of 3%

----------
# system_under_test: human muscarinic M4 receptor (Homo sapiens, UniProt P08173)
# Construct: expressed in transfected cells
# assay_notes: Alphascreen Surefire phospho-ERK1/2 functional assay, M4
# Type: cell-based
# experimental_setup: pEC50 M4, CHO cells stably expressing human M4; agonist 5 min, 37° C.
measure: pEC50
As a rule, pEC50 stands for the negative log10 of the concentration, concentration in M.

Cc1noc(N2CCC3(CC(N4CCC(C#N)(c5ccccc5)CC4)C3)C2)n1 (single isomer, unassigned) [2-2 Isomer 2] yielded pEC50 of 6.93

----------
Assignment: determine reported EC50 for the given molecules.
# system_under_test: human muscarinic M3 receptor (Homo sapiens, UniProt P20309)
# Construct: expressed in transfected cells
# Sequence (P20309 whole entry): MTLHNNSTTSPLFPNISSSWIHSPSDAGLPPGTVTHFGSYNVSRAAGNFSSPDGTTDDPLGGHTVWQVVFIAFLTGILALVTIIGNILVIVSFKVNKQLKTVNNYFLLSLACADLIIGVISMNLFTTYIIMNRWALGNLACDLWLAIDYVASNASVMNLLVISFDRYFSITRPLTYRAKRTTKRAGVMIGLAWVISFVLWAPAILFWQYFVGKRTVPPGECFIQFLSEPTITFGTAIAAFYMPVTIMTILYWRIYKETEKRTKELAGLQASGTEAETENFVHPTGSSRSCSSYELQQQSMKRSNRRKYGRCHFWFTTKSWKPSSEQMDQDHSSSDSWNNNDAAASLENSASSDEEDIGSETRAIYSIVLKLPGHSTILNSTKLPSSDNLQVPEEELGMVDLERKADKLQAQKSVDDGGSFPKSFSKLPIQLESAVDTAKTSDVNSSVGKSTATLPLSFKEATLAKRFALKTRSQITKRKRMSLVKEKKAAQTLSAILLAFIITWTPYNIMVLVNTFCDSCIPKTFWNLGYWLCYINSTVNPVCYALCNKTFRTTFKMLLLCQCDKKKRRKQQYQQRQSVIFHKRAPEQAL
# assay_notes: Alphascreen Surefire phospho-ERK1/2 functional assay, M3
# Type: cell-based
# experimental_setup: CHO cells stably expressing human M3; agonist 5 min, 37° C.; read-out: pEC50 M3 (converted)
# Experimental: ERK1/2 phosphorylation is a downstream consequence of both Gq/11 and Gi/o protein coupled receptor activation, making it highly suitable for the assessment of M1, M3 (Gq/11 coupled) and M2, M4 receptors (Gi/o coupled), rather than using different assay formats for different receptor subtypes. CHO cells stably expressing the human muscarinic M1, M2, M3 or M4 receptor were plated (25K/well) onto 96-well tissue culture plates in MEM-alpha+10% dialysed FBS. […]

Cc1noc(N2CC3CCC2CC3N2CCC3(CC2)CNC(=O)O3)n1 (single isomer, unassigned) [12-2 Isomer 2] yielded EC50 of > 20 µM

Cc1noc(N2CC3CCC2CC3N2CCC(n3cccn3)CC2)n1 (single isomer, unassigned) [7-1 Isomer 1] yielded EC50 of > 20 µM

Cc1noc(N2C3COCC2CC(N2CCC(n4cccn4)CC2)C3)n1 (single isomer, unassigned) [9-1 Isomer 1] yielded EC50 of > 20 µM

Cc1noc(N2CCC3(CC(N4CCC(n5cccn5)CC4)C3)C2)n1 (single isomer, unassigned) [2-1 Isomer 2] yielded EC50 of > 20 µM

Cc1noc(N2C3CCCC2CC(N2CCC4(CC2)CNC(=O)O4)C3)n1 (single isomer, unassigned) [8-3 Isomer 1] yielded EC50 of > 20 µM

Cc1noc(N2CCCC(N3CCC(N4C[C@H](F)C[C@@H]4CO)CC3)CC2)n1 (single isomer, unassigned) [10-7 Isomer 1] yielded EC50 of > 20 µM

Cc1noc(N2CC3CCC2CC3N2CCC3(CC2)CNC(=O)C3)n1 (single isomer, unassigned) [12-1 Isomer 2] yielded EC50 of > 20 µM

----------
# system_under_test: human muscarinic M3 receptor (Homo sapiens)
# Construct: expressed in transfected cells
# assay_notes: Alphascreen Surefire phospho-ERK1/2 functional assay, M3
# Assay type: cell-based
# experimental_setup: CHO cells stably expressing human M3; agonist 5 min, 37° C.
Assignment: determine reported pEC50 M3 for the given compounds.

CCN(C)C(=O)[C@H]1[C@@H]2CN(C3CC4CCC(C3)N4c3nc(C)no3)C[C@@H]21 (single isomer, unassigned; isomer 2) [12-24 Isomer 2] yielded pEC50 M3 of <4.70

CCN(CC)C(=O)[C@H]1[C@@H]2CN(C3CC4CCC(C3)N4c3nc(C)no3)C[C@@H]21 (single isomer, unassigned; isomer 1) [12-25 Isomer 1] yielded pEC50 M3 of <4.70

O=C1CC2(CCN(C3CC4CCC(C3)N4c3nc(C(F)(F)F)no3)CC2)CN1 (single isomer, unassigned; isomer 2) [12-3 Isomer 2] yielded pEC50 M3 of <4.70

----------
# system_under_test: human muscarinic M2 receptor (Homo sapiens)
# assay_notes: Alphascreen Surefire phospho-ERK1/2 functional assay, M2
# Format: cell-based
# experimental_setup: CHO, read-out: % Emax cf. ACh (M2), CHO cells stably expressing human M2; Emax relative to ACh
measure: Emax (%)
Your answer should be a plain number; it is taken to be in %.

Cc1noc(N2CC3CCC2CC3N2CCC(n3cccn3)CC2)n1 (single isomer, unassigned) [7-1 Isomer 1] yielded Emax of 11

Cc1noc(N2CC3CC(N4CCC5(CC4)CNC(=O)O5)CC2C3)n1 (single isomer, unassigned) [11-3 Isomer 2] yielded Emax of 21

Cc1noc(N2CCC3(CC(N4CCC(n5cccn5)CC4)C3)C2)n1 (single isomer, unassigned) [2-1 Isomer 2] yielded Emax of 2

Cc1noc(N2CC3CC(N4CCC5(CC4)CNC(=O)C5)CC2C3)n1 (single isomer, unassigned) [11-2 Isomer 2] yielded Emax of 8

Cc1noc(N2CC3CCC2CC3N2CCC3(CC2)CNC(=O)C3)n1 (single isomer, unassigned) [12-1 Isomer 2] yielded Emax of 6

Cc1noc(N2CC3CCC2CC3N2CCC3(CC2)CNC(=O)O3)n1 (single isomer, unassigned) [12-2 Isomer 2] yielded Emax of 14

Cc1noc(N2CCCC(N3CCC4(CC3)CNC(=O)C4)CC2)n1 (single isomer, unassigned) [10-2 Isomer 1] yielded Emax of 3

Cc1noc(N2CCCC(N3CCC(N4C[C@H](F)C[C@@H]4CO)CC3)CC2)n1 (single isomer, unassigned) [10-7 Isomer 1] yielded Emax of 15
